Hello, the source for this data is patent US20240424134A1, in case you need it.

protocol.notes: AFM analysis of self-assembled peptide complexes
Type: physicochemical
details: Table 12; self-assembled structure
Non-standard residues stand in square brackets, D forms with d. No end group written: not given here. Aib = CC(C)(N)C(=O)O
Assign Average diameter (nm) to each entry below.

Reference set (3 entries):
substance	Average diameter (nm)
Example 39: peptide complex (Wαm-RGD), SEQ ID NO 39 (A[Aib]A[Aib]A[Aib]A[Aib]A[Aib]A[Aib]A[Aib]AGRGDRGDG)	20 nm
RAUAUAUAUAUAUAUAUAUAUARGDRGDRGD [Example 64]	30-40 nm
AUAUAUAUAUAUAUAUAUAUA(PEG8)2 [Example 54]	20-90 nm

Please give Average diameter (nm) for each item listed below.
1. RRRAUAUAUAUAUAUAUAUAUAUA(PEG8)2 [Example 62]
2. RRAUAUAUAUAUAUAUAUAUAUAGRGDRGDRGDG (RRA[Aib]A[Aib]A[Aib]A[Aib]A[Aib]A[Aib]A[Aib]A[Aib]A[Aib]A[Aib]AGRGDRGDRGDG) [Example 68]

[out]
1: 110-150 nm; 2: 40-110 nm
